Assay: Oral pharmacokinetic study in rats (plasma, UPHILIC-MS/MS, non-compartmental analysis)
Type: in vivo, wistar albino rats
Details: Wistar albino, rat, plasma, po, 20 mg/kg, individual animal (rats R1-R6), oral ALP 20 mg/kg and LES 15 mg/kg

compound: O=c1[nH]c(=O)c2c[nH]nc2[nH]1 [OXP, oxypurinol]
AUC: 41900 ng·h/mL
--
compound: Oc1ncnc2[nH]ncc12 [ALP, Allopurinol]
AUC: 3390 ng·h/mL

###

Experiment: Oral pharmacokinetic study in rats (plasma, UPHILIC-MS/MS, non-compartmental analysis)
Type: in vivo, wistar albino rats
Details: Wistar albino, rat, plasma, po, 15 mg/kg, Mean line of six rats (supplement), oral ALP 20 mg/kg and LES 15 mg/kg; read-out: Tmax

substance-smiles: O=C(O)CSc1nnc(Br)n1-c1ccc(C2CC2)c2ccccc12
Tmax (h): 1.5

###

Experiment: Oral pharmacokinetic study in rats (plasma, UPHILIC-MS/MS, non-compartmental analysis)
Format: in vivo, wistar albino rats
Settings: Wistar albino, rat, plasma, po, 20 mg/kg, individual animal (rats R1-R6), oral ALP 20 mg/kg and LES 15 mg/kg; read-out: Cmax
quantity-name: Cmax

molecule: O=c1[nH]c(=O)c2c[nH]nc2[nH]1 [OXP, oxypurinol]
quantity-name: Cmax
result: 6250 ng/mL
//
molecule: Oc1ncnc2[nH]ncc12 [ALP, Allopurinol]
quantity-name: Cmax
result: 1380 ng/mL

###

In this section, each of the compounds is paired with its reported AUC(0-t).
Assay: Oral pharmacokinetic study in rats (plasma, UPHILIC-MS/MS, non-compartmental analysis)
Assay type: in vivo, wistar albino rats
Settings: Wistar albino, rat, plasma, po, 20 mg/kg, Mean of six rats (supplement), oral ALP 20 mg/kg and LES 15 mg/kg; read-out: AUClast

substance-smiles: O=c1[nH]c(=O)c2c[nH]nc2[nH]1
AUC(0-t): 44800 ng·h/mL

substance-smiles: Oc1ncnc2[nH]ncc12
AUC(0-t): 3510 ng·h/mL

###

Here the recorded MRT is given for each entry.
Test: Oral pharmacokinetic study in rats (plasma, UPHILIC-MS/MS, non-compartmental analysis)
Type: in vivo, wistar albino rats
Details: Wistar albino, rat, plasma, po, 20 mg/kg, individual animal (rats R1-R6), oral ALP 20 mg/kg and LES 15 mg/kg; read-out: MRT
quantity-name: MRT (h)

substance-smiles: O=c1[nH]c(=O)c2c[nH]nc2[nH]1
numeric-result: 8.33
//
substance-smiles: Oc1ncnc2[nH]ncc12
numeric-result: 2.04

###

Let's look at some compounds and their measured AUC.
Assay: Oral pharmacokinetic study in rats (plasma, UPHILIC-MS/MS, non-compartmental analysis)
Format: in vivo, wistar albino rats
Conditions: Wistar albino, rat, plasma, po, 20 mg/kg, Mean of six rats (supplement), oral ALP 20 mg/kg and LES 15 mg/kg

compound: Oc1ncnc2[nH]ncc12 [ALP, Allopurinol]
units-symbol: ng·h/mL
AUC: 3660

compound: O=c1[nH]c(=O)c2c[nH]nc2[nH]1 [OXP, oxypurinol]
units-symbol: ng·h/mL
AUC: 47400

###

Assay: Oral pharmacokinetic study in rats (plasma, UPHILIC-MS/MS, non-compartmental analysis)
Format: in vivo, wistar albino rats
Settings: Wistar albino, rat, plasma, po, rat plasma, oral co-administration of ALP 20 mg/kg and LES 15 mg/kg, mean ± SD; read-out: AUC0-24

substance-smiles: O=C(O)CSc1nnc(Br)n1-c1ccc(C2CC2)c2ccccc12
AUC(0-t) (ng·h/mL): 65900
//
substance-smiles: O=c1[nH]c(=O)c2c[nH]nc2[nH]1
AUC(0-t) (ng·h/mL): 44800
//
substance-smiles: Oc1ncnc2[nH]ncc12
AUC(0-t) (ng·h/mL): 3510

###

Tmax reference
Assay: Oral pharmacokinetic study in rats (plasma, UPHILIC-MS/MS, non-compartmental analysis)
Type: in vivo, wistar albino rats
Conditions: Wistar albino, rat, plasma, po, rat plasma, oral co-administration of ALP 20 mg/kg and LES 15 mg/kg, six rats; read-out: Tmax

substance-smiles: O=c1[nH]c(=O)c2c[nH]nc2[nH]1
Tmax [h]: 2
--
substance-smiles: Oc1ncnc2[nH]ncc12
Tmax [h]: 0.66
--
substance-smiles: O=C(O)CSc1nnc(Br)n1-c1ccc(C2CC2)c2ccccc12
Tmax [h]: 1.5

###

Experiment: Oral pharmacokinetic study in rats (plasma, UPHILIC-MS/MS, non-compartmental analysis)
Format: in vivo, wistar albino rats
Conditions: Wistar albino, rat, plasma, po, 20 mg/kg, Mean of six rats (supplement), oral ALP 20 mg/kg and LES 15 mg/kg; read-out: MRT

substance-smiles: Oc1ncnc2[nH]ncc12
MRT, h: 1.99

substance-smiles: O=c1[nH]c(=O)c2c[nH]nc2[nH]1
MRT, h: 7.58

###

Experiment: Oral pharmacokinetic study in rats (plasma, UPHILIC-MS/MS, non-compartmental analysis)
Format: in vivo, wistar albino rats
Settings: Wistar albino, rat, plasma, po, rat plasma, oral co-administration of ALP 20 mg/kg and LES 15 mg/kg, mean ± SD, six rats; read-out: Cmax
quantity-name: Cmax (ng/mL)

substance-smiles: O=c1[nH]c(=O)c2c[nH]nc2[nH]1
quantity-name: Cmax
numeric-result: 7500
//
substance-smiles: O=C(O)CSc1nnc(Br)n1-c1ccc(C2CC2)c2ccccc12
quantity-name: Cmax
numeric-result: 8270
//
substance-smiles: Oc1ncnc2[nH]ncc12
quantity-name: Cmax
numeric-result: 2030

###

Test: Oral pharmacokinetic study in rats (plasma, UPHILIC-MS/MS, non-compartmental analysis)
Type: in vivo, wistar albino rats
Conditions: Wistar albino, rat, plasma, po, 15 mg/kg, individual animal (rats R1-R6), oral ALP 20 mg/kg and LES 15 mg/kg

substance-smiles: O=C(O)CSc1nnc(Br)n1-c1ccc(C2CC2)c2ccccc12
units-symbol: ng·h/mL
AUC: 69800

###

Assay: Oral pharmacokinetic study in rats (plasma, UPHILIC-MS/MS, non-compartmental analysis)
Assay type: in vivo, wistar albino rats
Settings: Wistar albino, rat, plasma, po, 20 mg/kg, Mean of six rats (supplement), oral ALP 20 mg/kg and LES 15 mg/kg; read-out: Cmax

substance-smiles: O=c1[nH]c(=O)c2c[nH]nc2[nH]1
units-symbol: ng/mL
Cmax: 7500
//
substance-smiles: Oc1ncnc2[nH]ncc12
units-symbol: ng/mL
Cmax: 2030
